# Assay details: TRM-201-PK-102 single-dose four-period crossover pharmacokinetic study, fasted healthy subjects
# Assay type: in vivo, human
# Study conditions: human, plasma, oral, 20 mg, 102 study, body weight 70.1-77 kg, read-out: arithmetic mean Cmax
Readout kind: Cmax (ng/mL)
Kindly provide the numeric value in ng/mL only, without the unit symbol.

Lab note: CS(=O)(=O)c1ccc(C2=C(c3ccccc3)C(=O)OC2)cc1 gave Cmax of 259

----------
# Assay details: TRM-201-PK-102 single-dose four-period crossover pharmacokinetic study, fasted healthy subjects
# Format: in vivo, human
# Study conditions: female, human, plasma, oral, 17.5 mg, 102 study, females, read-out: arithmetic mean Cmax
Readout kind: Cmax (ng/mL)
Report as a plain number; the unit ng/mL is understood.

The reported Cmax of the compound CS(=O)(=O)c1ccc(C2=C(c3ccccc3)C(=O)OC2)cc1 was 266

----------
# Assay details: TRM-201-PK-102 single-dose four-period crossover pharmacokinetic study, fasted healthy subjects
# Assay type: in vivo, human
# Study conditions: human, plasma, oral, 20 mg, 102 study, 41-52 years, read-out: geometric mean AUC0-∞
Readout kind: AUC(0-inf) (ng·h/mL)
Quick note: give the figure in ng·h/mL, leave out the unit.

response.value for CS(=O)(=O)c1ccc(C2=C(c3ccccc3)C(=O)OC2)cc1 (field: AUC(0-inf)) = 3360

----------
# Assay details: TRM-201-PK-102 single-dose four-period crossover pharmacokinetic study, fasted healthy subjects
# Type: in vivo, human
# Study conditions: male, human, plasma, oral, 17.5 mg, 102 study, males, read-out: arithmetic mean AUC0-∞
Readout kind: AUC(0-inf) (ng·h/mL)
// return numeric value only (unit: ng·h/mL, not printed)

Record summary for CS(=O)(=O)c1ccc(C2=C(c3ccccc3)C(=O)OC2)cc1 : reported AUC(0-inf) = 2860

----------
# Assay details: TRM-201-PK-102 single-dose four-period crossover pharmacokinetic study, fasted healthy subjects
# Type: in vivo, human
# Study conditions: human, plasma, oral, 12.5 mg, 102 study, 18-40 years, read-out: geometric mean Cmax
Readout kind: Cmax (ng/mL)
The reply should be a number in ng/mL, with the unit left off.

Sure, the documented Cmax for CS(=O)(=O)c1ccc(C2=C(c3ccccc3)C(=O)OC2)cc1 is 156

----------
# Assay details: TRM-201-PK-101 single-dose pharmacokinetic study, 25 mg, fasted healthy subjects
# Format: in vivo, human
# Study conditions: human, plasma, oral; 25 mg formulation in TRM-201-PK-101, as stated in Example 6; read-out: Geometric mean AUC
Readout kind: AUC (ng·h/mL)
Hi! Could you send only the number? It should be in ng·h/mL, unit omitted.

Sample CS(=O)(=O)c1ccc(C2=C(c3ccccc3)C(=O)OC2)cc1 [TRM-201] ; AUC observed: 4680

----------
# Assay details: TRM-201-PK-102 single-dose four-period crossover pharmacokinetic study, fasted healthy subjects
# Type: in vivo, human
# Study conditions: male, human, plasma, oral, 25 mg, 102 study, males, read-out: geometric mean AUC0-∞
Readout kind: AUC(0-inf) (ng·h/mL)
Give just the numeric value; ng·h/mL need not be written.

So, CS(=O)(=O)c1ccc(C2=C(c3ccccc3)C(=O)OC2)cc1 ? Its AUC(0-inf) was 3940

----------
# Assay details: TRM-201-PK-102 single-dose four-period crossover pharmacokinetic study, fasted healthy subjects
# Type: in vivo, human
# Study conditions: human, plasma, oral, 12.5 mg, 102 study, body weight 70.1-77 kg, read-out: geometric mean AUC0-∞
Readout kind: AUC(0-inf) (ng·h/mL)
Answer with a number only, understood to be in ng·h/mL.

The value of AUC(0-inf) measured for the compound CS(=O)(=O)c1ccc(C2=C(c3ccccc3)C(=O)OC2)cc1 [TRM-201] turned out to be 2420
